- System: SF-295 CNS
- Test Name: NCI-60 one-dose screen, 48 h
- Experimental Parameters: 10 µM unless noted
Compounds without any hit were thinned out: in the full panel of roughly 83,000, 20% have a hit. Calls of active or inactive are those of the source. The calls were made as follows: active = growth percent below 10; inactive = the rest.
Bench note: report the call from label 1 = active, label 0 = inactive

Req: Tell me the assay call for CC(=O)c1nc2ccccc2n1CC(=O)c1cccc(Cl)c1 please.
Resp: label 1

Req: Now consider CCOc1cc2ncc(C#N)c(Nc3ccc(F)c(Cl)c3)c2cc1NC(=O)CC1CCSS1 (stereo unspecified) and answer again.
Resp: label 1

Req: Now consider CC1CCNC(C)C1 (stereo unspecified) and answer again.
Resp: label 0

Req: Now consider CC(=O)c1cc2c(N)c(C(=O)Nc3ccccc3)sc2nc1C and answer again.
Resp: label 0

Req: Now consider OCc1ccc(N2CCc3cccc(F)c3C2)cc1Cl and answer again.
Resp: label 0

Req: Now consider C=C(C)C(=O)Nc1ccc(NC(C)C)cc1 and answer again.
Resp: label 0

---
Req: Tell me the assay call for O=[N+]([O-])c1ccc2c(c1)Cc1cc(F)ccc1-2 please.
Resp: label 0

Req: Now consider Cc1ccc(-c2onc3c(=O)[nH]nc(-c4ccccc4)c23)cc1 and answer again.
Resp: label 0

Req: Now consider CC1=C[C@H]2c3c(c(O)c(O)c4oc5ccccc5c(=O)c34)[C@H](c3cc(O)c(O)c4oc5ccccc5c(=O)c34)[C@H]2C(C)(C)C1 and answer again.
Resp: label 1

Req: Now consider O=C(CCCCC(=O)N/N=C\c1ccccc1O)N/N=C\c1ccccc1O and answer again.
Resp: label 0

Req: Now consider COc1ccc(CCNc2nc3c(c(=O)n(Cc4ccc(Br)cc4)c(=O)n3C)n2C)cc1OC and answer again.
Resp: label 0

The values you see were collected from PubChem BioAssay (NCI).
